Data credit: ChEMBL document CHEMBL4190317

# Target system: Phosphatidylinositol 4,5-bisphosphate 3-kinase catalytic subunit beta isoform (Homo sapiens)
# Sequence (P42338 whole entry, canonical isoform): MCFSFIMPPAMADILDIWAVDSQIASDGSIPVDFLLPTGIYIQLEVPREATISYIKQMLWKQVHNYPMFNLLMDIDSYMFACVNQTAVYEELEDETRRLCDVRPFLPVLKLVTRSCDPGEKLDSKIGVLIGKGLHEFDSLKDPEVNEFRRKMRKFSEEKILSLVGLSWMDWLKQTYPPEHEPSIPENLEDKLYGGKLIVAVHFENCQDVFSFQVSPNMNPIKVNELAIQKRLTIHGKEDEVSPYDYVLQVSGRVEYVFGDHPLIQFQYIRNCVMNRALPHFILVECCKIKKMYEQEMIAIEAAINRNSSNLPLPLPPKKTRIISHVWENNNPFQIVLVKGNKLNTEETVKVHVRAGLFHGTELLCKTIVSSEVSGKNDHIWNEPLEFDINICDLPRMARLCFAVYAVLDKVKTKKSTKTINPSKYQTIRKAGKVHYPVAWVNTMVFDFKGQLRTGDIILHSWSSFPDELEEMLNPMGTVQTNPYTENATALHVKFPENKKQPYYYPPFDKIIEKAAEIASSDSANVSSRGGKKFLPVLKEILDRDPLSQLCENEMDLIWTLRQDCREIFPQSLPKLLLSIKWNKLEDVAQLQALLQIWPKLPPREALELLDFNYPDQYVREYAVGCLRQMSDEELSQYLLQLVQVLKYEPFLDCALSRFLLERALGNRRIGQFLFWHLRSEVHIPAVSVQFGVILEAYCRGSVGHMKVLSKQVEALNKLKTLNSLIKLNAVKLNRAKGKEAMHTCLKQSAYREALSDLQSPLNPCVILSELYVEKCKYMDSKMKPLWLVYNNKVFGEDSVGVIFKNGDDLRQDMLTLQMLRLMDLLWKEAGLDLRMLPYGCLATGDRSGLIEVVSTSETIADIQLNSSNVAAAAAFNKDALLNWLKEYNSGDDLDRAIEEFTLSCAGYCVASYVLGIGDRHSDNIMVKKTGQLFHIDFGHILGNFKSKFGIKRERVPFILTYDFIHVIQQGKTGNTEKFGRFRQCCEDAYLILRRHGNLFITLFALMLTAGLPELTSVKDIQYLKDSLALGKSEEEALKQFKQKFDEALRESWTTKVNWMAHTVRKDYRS
# Experiment description: Inhibition of PI3Kbeta (unknown origin) using PIP2 as substrate by HTRF […] assay
pIC50: −log10 of the molar value.
Assay metric: pIC50

                               given_smiles  test_value
0  CCOC(=O)c1cnc2ccc(-c3cncc(NS(=O)(=O)c4ccccc4)c3)cn12        7.23
1  COc1ncc(-c2ccc3ncn(CCCN4CCOCC4)c(=O)c3c2)cc1NS(=O)(=O)c1ccc(F)cc1F        6.97
2  COc1ncc(-c2ccc3ncc(C(=O)NCCCN4CCOCC4)n3c2)cc1NS(=O)(=O)c1ccc(F)cc1F        6.97
3  COc1ncc(-c2ccc3ncc(C(=O)NCCN4CCOCC4)n3c2)cc1NS(=O)(=O)c1ccc(F)cc1F        7.05

====

# Target system: PI3-kinase p110-delta/p85-alpha (Homo sapiens)
# Sequence (P27986 whole entry): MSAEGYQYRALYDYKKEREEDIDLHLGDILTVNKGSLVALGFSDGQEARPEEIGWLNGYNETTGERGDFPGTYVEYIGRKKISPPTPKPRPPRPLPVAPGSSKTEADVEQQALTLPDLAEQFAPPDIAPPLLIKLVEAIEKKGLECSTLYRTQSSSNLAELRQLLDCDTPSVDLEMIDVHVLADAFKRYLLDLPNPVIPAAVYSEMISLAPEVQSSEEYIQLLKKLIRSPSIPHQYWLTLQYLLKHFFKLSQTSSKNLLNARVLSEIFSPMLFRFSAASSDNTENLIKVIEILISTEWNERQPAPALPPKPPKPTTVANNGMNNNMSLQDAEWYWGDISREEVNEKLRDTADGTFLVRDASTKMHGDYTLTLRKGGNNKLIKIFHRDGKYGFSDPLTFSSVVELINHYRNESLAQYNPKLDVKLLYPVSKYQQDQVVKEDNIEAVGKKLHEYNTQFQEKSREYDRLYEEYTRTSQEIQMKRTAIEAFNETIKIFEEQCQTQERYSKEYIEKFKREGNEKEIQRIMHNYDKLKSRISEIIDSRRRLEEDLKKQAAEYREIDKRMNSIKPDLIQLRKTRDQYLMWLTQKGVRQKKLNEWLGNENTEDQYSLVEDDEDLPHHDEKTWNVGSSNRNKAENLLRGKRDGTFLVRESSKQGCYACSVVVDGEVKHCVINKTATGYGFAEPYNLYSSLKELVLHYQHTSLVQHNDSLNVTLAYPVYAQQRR
# Sequence (O00329 whole entry): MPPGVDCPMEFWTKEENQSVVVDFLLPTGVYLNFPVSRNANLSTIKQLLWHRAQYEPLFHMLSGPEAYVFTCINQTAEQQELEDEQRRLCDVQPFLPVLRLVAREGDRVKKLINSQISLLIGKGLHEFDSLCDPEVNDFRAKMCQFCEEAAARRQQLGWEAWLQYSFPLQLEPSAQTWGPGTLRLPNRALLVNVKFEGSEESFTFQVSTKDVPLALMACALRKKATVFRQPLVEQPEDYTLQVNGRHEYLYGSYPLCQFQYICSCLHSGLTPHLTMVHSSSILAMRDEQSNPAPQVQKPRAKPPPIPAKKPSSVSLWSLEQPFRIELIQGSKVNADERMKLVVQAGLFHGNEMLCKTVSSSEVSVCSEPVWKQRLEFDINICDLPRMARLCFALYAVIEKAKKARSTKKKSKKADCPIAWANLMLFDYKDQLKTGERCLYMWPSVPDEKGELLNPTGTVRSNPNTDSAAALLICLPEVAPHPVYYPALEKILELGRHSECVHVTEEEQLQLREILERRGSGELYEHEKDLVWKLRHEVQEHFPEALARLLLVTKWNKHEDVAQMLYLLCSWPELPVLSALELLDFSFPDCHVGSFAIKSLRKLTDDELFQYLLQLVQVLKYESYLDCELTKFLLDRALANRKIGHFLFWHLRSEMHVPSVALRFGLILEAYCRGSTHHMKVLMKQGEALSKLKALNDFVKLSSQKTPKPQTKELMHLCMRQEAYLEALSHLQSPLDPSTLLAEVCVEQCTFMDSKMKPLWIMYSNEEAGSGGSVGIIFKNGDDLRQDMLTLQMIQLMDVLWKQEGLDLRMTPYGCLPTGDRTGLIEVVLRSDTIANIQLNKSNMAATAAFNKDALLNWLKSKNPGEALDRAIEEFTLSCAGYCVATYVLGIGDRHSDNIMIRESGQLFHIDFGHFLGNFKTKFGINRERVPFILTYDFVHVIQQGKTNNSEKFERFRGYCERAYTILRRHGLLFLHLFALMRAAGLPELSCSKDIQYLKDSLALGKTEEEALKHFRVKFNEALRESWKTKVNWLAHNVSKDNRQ
# Experiment description: Inhibition of p110delta/p85alpha (unknown origin) using PIP2 as substrate by HTRF […] assay
pIC50: −log10 of the molar value.
Assay metric: pIC50

>>> print(df.to_string())
                               given_smiles                             target_system  assay_metric  test_value
0  COc1ncc(-c2ccc3ncn(CCCN4CCOCC4)c(=O)c3c2)cc1NS(=O)(=O)c1ccc(F)cc1F  PI3-kinase p110-delta/p85-alpha (Homo sapiens)         pIC50        7.16
1  COc1ncc(-c2ccc3ncc(C(=O)NCCCN4CCOCC4)n3c2)cc1NS(=O)(=O)c1ccc(F)cc1F  PI3-kinase p110-delta/p85-alpha (Homo sapiens)         pIC50        7.00

====

# Target system: Phosphatidylinositol 4,5-bisphosphate 3-kinase catalytic subunit gamma isoform (Homo sapiens)
# Sequence (P48736 whole entry, canonical isoform): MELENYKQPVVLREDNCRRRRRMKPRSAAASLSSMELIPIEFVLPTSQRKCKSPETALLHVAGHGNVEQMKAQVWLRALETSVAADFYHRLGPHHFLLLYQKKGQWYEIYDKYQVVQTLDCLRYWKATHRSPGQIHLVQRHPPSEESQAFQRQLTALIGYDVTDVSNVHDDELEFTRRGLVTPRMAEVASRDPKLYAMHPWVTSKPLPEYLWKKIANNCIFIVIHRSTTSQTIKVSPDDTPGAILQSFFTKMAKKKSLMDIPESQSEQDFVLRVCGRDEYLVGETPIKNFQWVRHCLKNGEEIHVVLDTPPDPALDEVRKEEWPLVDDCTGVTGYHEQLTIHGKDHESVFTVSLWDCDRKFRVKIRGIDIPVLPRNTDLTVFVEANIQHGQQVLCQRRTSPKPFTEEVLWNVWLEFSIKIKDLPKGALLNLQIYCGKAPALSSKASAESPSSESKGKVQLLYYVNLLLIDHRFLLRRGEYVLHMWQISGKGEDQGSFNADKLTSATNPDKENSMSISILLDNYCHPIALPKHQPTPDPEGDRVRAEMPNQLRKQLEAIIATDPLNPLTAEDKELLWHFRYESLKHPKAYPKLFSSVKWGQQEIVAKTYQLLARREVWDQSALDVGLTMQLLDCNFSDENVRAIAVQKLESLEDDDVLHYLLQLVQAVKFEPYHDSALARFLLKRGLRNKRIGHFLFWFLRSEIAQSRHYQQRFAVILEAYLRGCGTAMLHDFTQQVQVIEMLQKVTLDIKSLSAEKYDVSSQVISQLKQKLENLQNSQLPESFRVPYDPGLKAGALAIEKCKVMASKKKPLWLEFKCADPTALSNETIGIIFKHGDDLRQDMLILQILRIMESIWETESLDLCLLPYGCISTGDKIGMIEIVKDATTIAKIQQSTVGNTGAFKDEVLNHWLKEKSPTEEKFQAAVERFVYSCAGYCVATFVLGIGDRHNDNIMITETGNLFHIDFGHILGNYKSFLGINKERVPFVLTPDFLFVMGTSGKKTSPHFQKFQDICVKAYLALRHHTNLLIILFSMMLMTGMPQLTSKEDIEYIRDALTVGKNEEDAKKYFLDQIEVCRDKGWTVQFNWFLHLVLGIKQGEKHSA
# Experiment description: Inhibition of N-terminal His6-tagged recombinant full-length human PI3Kgamma expressed in baculovirus infected Sf21 insect cells using PIP2 as substrate by HTRF […] assay
Assay metric: IC50 (nM)

>>> df
                               given_smiles  test_value
0  COc1ncc(-c2ccc3ncc(C(=O)NCCN4CCOCC4)n3c2)cc1NS(=O)(=O)c1ccc(F)cc1F          45
1  COc1ncc(-c2ccc3ncn(CCCN4CCOCC4)c(=O)c3c2)cc1NS(=O)(=O)c1ccc(F)cc1F         116

[a] CCOC(=O)c1cnc2ccc(-c3cncc(NS(=O)(=O)c4ccccc4)c3)cn12
[b] COc1ncc(-c2ccc3ncc(C(=O)NCCCN4CCOCC4)n3c2)cc1NS(=O)(=O)c1ccc(F)cc1F
Which record shows the lower IC50: the first, a , or the second, b ? Lab note: record the label of whichever item you select.
b

====

# Target system: PI3-kinase p110-alpha/p85-alpha (Homo sapiens)
# Sequence (P27986 whole entry): as the sequence (P27986 whole entry) above
# Sequence (P42336 whole entry): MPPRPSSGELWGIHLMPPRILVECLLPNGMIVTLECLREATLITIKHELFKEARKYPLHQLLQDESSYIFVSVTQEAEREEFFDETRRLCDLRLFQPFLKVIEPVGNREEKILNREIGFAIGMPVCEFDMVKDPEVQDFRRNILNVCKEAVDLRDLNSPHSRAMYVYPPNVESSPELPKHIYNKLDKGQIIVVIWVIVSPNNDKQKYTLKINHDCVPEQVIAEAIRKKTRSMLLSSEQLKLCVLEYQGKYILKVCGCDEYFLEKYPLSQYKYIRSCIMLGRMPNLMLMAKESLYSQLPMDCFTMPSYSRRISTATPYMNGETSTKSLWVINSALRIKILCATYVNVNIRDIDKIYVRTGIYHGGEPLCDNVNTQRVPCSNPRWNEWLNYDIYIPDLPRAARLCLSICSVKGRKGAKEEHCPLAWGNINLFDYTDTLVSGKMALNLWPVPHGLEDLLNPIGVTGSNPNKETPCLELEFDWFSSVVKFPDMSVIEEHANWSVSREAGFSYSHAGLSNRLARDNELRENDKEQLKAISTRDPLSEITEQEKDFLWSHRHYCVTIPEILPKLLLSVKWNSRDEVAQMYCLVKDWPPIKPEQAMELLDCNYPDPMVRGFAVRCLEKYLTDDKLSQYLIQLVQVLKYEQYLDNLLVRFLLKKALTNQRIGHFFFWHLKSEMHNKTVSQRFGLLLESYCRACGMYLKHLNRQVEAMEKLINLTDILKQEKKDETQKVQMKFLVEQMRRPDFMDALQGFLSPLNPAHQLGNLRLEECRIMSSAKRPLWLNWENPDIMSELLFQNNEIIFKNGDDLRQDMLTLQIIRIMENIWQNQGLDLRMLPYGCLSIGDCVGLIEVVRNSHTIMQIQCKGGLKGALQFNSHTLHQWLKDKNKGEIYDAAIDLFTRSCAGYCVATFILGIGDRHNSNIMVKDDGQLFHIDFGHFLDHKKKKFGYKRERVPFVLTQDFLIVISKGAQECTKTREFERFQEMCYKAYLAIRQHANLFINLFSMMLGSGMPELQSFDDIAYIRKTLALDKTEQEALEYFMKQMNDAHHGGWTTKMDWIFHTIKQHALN
# Experiment description: Inhibition of N-terminal His6-tagged recombinant full-length human p110alpha/untagged recombinant full length human p85alpha expressed in baculovirus infected Sf21 insect cells using PIP2 as substrate by HTRF […] assay
Assay metric: IC50 (nM)

[a] COc1ncc(-c2ccc3ncn(CCCN4CCOCC4)c(=O)c3c2)cc1NS(=O)(=O)c1ccc(F)cc1F
[b] COc1ncc(-c2ccc3ncc(C(=O)NCCCN4CCOCC4)n3c2)cc1NS(=O)(=O)c1ccc(F)cc1F
Which has the higher IC50, a or b ? Lab log: write the label of the selected item as the result.
a
(a: 6.5 nM, b: 3.8 nM)

====

# System: MDA-MB-231
# Experiment description: Antiproliferative activity against human MDA-MB-231 cells after 72 hrs by SRB assay
# Condition notes: MDA-MB-231, 72 h
Assay metric: IC50 (nM)

Worked cases, answers included:
>>> df
                               given_smiles  units  test_value
0  CCOC(=O)Cn1cnc2ccc(-c3cnc(OC)c(NS(=O)(=O)c4ccc(F)cc4F)c3)cc2c1=O     nM         120
1  COc1ncc(-c2ccc3ncn(CCCn4ccccc4=O)c(=O)c3c2)cc1NS(=O)(=O)c1ccc(F)cc1F     nM         150
2  COc1ncc(-c2ccc3ncc(C(=O)NCCCN4CCOCC4)n3c2)cc1NS(=O)(=O)c1ccc(F)cc1F     nM         300

[P] COc1ncc(-c2ccc3ncc(C(=O)NCc4ccncc4)n3c2)cc1NS(=O)(=O)c1ccc(F)cc1F
[Q] COc1ncc(-c2ccc3ncn(CCCn4ccnc4)c(=O)c3c2)cc1NS(=O)(=O)c1ccc(F)cc1F
[R] COc1ncc(-c2ccc3ncn(CCCCC(=O)N4CCOCC4)c(=O)c3c2)cc1NS(=O)(=O)c1ccc(F)cc1F
[S] CCOC(=O)c1cnc2ccc(-c3cnc(OC)c(NS(C)(=O)=O)c3)cn12
[T] COc1ncc(-c2ccc3ncc(C(=O)N4CCC(O)CC4)n3c2)cc1NS(=O)(=O)c1ccc(F)cc1F
Sort the 5 compounds by IC50; largest first, smallest last. Please express your ranking as an ordered list of the labels.
Q, R, T, P, S

====

# Tested on: HUVEC
# Experiment description: Cytotoxicity against HUVEC after 72 hrs by SRB assay
# Condition notes: Homo sapiens
Reported IC50 values are given for each entry in this list.
// note: answer is a bare numeric in µM

Request: IC50, test system HUVEC, entry "COc1ncc(-c2ccc3ncc(C(=O)NCCCN4CCOCC4)n3c2)cc1NS(=O)(=O)c1ccc(F)cc1F"
3.56

Test system HUVEC; read-out IC50; what value for "COc1ncc(-c2ccc3ncn(CCCN4CCOCC4)c(=O)c3c2)cc1NS(=O)(=O)c1ccc(F)cc1F" ?
8.97

====

# Tested on: MDA-MB-231
# Experiment description: Antiproliferative activity against human MDA-MB-231 cells after 72 hrs by SRB assay
# Condition notes: MDA-MB-231, 72 h
pIC50: −log10 of the molar value.
Assay metric: pIC50

Recorded results for 5 compounds are shown here.
In [3]: df
Out[3]:
                               given_smiles  test_value
0  COc1ncc(-c2ccc3ncn(CCCCCC(=O)N4CCOCC4)c(=O)c3c2)cc1NS(=O)(=O)c1ccc(F)cc1F        5.67
1  COc1ncc(-c2ccc3ncc(C(=O)O)n3c2)cc1NS(=O)(=O)c1ccc(F)cc1F        6.43
2  CCCCS(=O)(=O)Nc1cc(-c2ccc3ncc(C(=O)OCC)n3c2)cnc1OC        5.63
3  CCOC(=O)c1cnc2ccc(-c3cncc(NS(=O)(=O)c4ccccc4)c3)cn12        6.12
4  CCOC(=O)c1cc2cc(-c3cnc(OC)c(NS(=O)(=O)c4ccc(F)cc4)c3)ccc2[nH]1        6.82

[a] COc1ncc(-c2ccc3ncc(C(=O)NCCN(C)C)n3c2)cc1NS(=O)(=O)c1ccc(F)cc1F
[b] COc1ncc(-c2ccc3ncn(CCCN4CCOCC4)c(=O)c3c2)cc1NS(=O)(=O)c1ccc(F)cc1F
Between a and b , which one shows the larger pIC50 value? Which one? Tell me its label.
b

[a] CCOC(=O)c1cnc2ccc(-c3cnc(OC)c(NS(=O)(=O)c4ccc(F)cc4F)c3)cn12
[b] COc1ncc(-c2ccc3ncc(C(=O)N4CCC(OC(=O)c5ccccc5)CC4)n3c2)cc1NS(=O)(=O)c1ccc(F)cc1F
[c] CCOC(=O)c1cnc2ccc(-c3cnc(OC)c(NS(=O)(=O)c4ccc(F)cc4)c3)cn12
Sort low-to-high on pIC50, please. Record the ranking as a list of labels in the requested order.
b, c, a
(b: 5.84, c: 6.28, a: 6.92)
